Taken from patent US20220259593A1.

- Test system: K562 CRISPRi cells
- protocol_description: Constant region variant library pooled growth screen, K562
- Format: cell-based, human
- recorded_conditions: sgRNA constant region variants; relative to the original, un-modified constant region cr995 (= 1)
result_type: Mean relative activity

Known results for molecules:
molecule="cr722 (nucleic acid, listed as DNA, chemistry not fully specified) guide: GTTTAAGAGCTAAGCTGGAAACAGCATAGCAAGTTTAAATAAGGCTAGTCCGTTATCAACTTGAGAAAGTGGCCCCGAGTCGGGGCT" result_type="Mean relative activity" reading=1.001
molecule="cr884 (nucleic acid, listed as DNA, chemistry not fully specified) guide: GTTTAAGAGCTAAGCTGGAAACAGCATAGCAAGTTTAAATAAGGCTAGTCCGTTATCACCTAGAAATAGGGTCACCGAGTCGGTGAT" result_type="Mean relative activity" reading=1.027
molecule="cr561 (nucleic acid, listed as DNA, chemistry not fully specified) guide: GTTTAAGAGCTAAGCTGGAAACAGCATAGCAAGTTTAAATAAGGCTTGTCCGTTATCAACTTGAAAAAGTGGCACCGAGTCGGTGCT" result_type="Mean relative activity" reading=1.021

Now look at this one.
Consider the molecule cr929 (nucleic acid, listed as DNA, chemistry not fully specified) guide: GTTTAAGAGCTAAGCTGGAAACAGCATAGCAAGTTTAAATAAGGCTAGTCCGTTATCAACTTGAAAAAGTGTCACCGAGTCGGTGCT and give its recorded Mean relative activity. 1.025
